Experimental target: human progesterone receptor A (Homo sapiens)
Sequence (P06401 165-933): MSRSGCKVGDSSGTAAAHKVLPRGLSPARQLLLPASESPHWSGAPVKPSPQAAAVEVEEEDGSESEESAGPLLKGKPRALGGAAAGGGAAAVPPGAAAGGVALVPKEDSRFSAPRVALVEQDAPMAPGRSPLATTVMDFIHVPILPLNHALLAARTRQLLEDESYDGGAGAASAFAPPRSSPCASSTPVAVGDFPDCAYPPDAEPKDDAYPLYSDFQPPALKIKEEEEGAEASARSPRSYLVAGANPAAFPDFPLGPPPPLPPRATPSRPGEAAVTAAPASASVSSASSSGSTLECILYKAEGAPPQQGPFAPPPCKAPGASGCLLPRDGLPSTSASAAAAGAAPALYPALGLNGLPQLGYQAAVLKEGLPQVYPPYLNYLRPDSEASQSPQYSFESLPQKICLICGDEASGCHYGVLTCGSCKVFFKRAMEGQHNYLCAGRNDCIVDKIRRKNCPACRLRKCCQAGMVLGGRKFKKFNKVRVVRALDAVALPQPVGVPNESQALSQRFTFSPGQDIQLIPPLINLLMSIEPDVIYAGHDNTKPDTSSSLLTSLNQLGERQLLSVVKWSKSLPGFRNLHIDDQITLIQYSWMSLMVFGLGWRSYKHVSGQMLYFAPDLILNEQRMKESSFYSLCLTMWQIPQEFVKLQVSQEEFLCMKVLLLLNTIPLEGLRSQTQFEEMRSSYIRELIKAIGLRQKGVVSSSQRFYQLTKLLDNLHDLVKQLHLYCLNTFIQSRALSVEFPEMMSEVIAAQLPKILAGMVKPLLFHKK
Assay comment: Progesterone-receptor-antagonistic action in stably transfected SK-N-MC cells, MTV-LUC reporter (PR-A)
Condition context: antagonistic potency vs 0.1 nmol/l promegestone, 24 hours, luciferase
Measured pIC50 accompanies every entry in the list below.
Remember, pIC50 is on a log scale: it is -log10 of the molar concentration.

1) COc1ccccc1NC(=O)c1ccc([C@H]2C[C@@]3(C)[C@@H](CC[C@@]3(O)C(F)(F)C(F)(F)F)[C@@H]3CCC4=CC(=O)CCC4=C32)cc1: 7.07
2) C[C@]12C[C@H](c3ccc(-c4ccc(C(N)=O)cc4)cc3)C3=C4CCC(=O)C=C4CC[C@H]3[C@@H]1CC[C@@]2(O)C(F)(F)C(F)(F)F: 11.00
3) CN(C(=O)c1ccc([C@H]2C[C@@]3(C)[C@@H](CC[C@@]3(O)C(F)(F)C(F)(F)F)[C@@H]3CCC4=CC(=O)CCC4=C32)cc1)c1ccccc1: 7.20
4) CC(=O)N1CCN(C(=O)c2ccc([C@H]3C[C@@]4(C)[C@@H](CC[C@@]4(O)C(F)(F)C(F)(F)F)[C@@H]4CCC5=CC(=O)CCC5=C43)cc2)CC1: 8.17
5) CN(CCc1ccccn1)C(=O)c1ccc([C@H]2C[C@@]3(C)[C@@H](CC[C@@]3(O)C(F)(F)C(F)(F)F)[C@@H]3CCC4=CC(=O)CCC4=C32)cc1: 7.80

Q. Complete the entry with pIC50 for C[C@]12C[C@H](c3ccc(C(=O)N4CCN(c5ccccc5)CC4)cc3)C3=C4CCC(=O)C=C4CC[C@H]3[C@@H]1CC[C@@]2(O)C(F)(F)C(F)(F)F
A. 8.14

Q. Return value of pIC50 for input CN(CCc1cccnc1)C(=O)c1ccc([C@H]2C[C@@]3(C)[C@@H](CC[C@@]3(O)C(F)(F)C(F)(F)F)[C@@H]3CCC4=CC(=O)CCC4=C32)cc1 , no commentary.
A. 8.85

Q. Give pIC50 for the following compound: CN(Cc1ccncc1)C(=O)c1ccc([C@H]2C[C@@]3(C)[C@@H](CC[C@@]3(O)C(F)(F)C(F)(F)F)[C@@H]3CCC4=CC(=O)CCC4=C32)cc1
A. 8.16

Q. Answer with reported pIC50 of C[C@]12C[C@H](c3ccc(C(=O)Nc4ccc(C(N)=O)cc4)cc3)C3=C4CCC(=O)C=C4CC[C@H]3[C@@H]1CC[C@@]2(O)C(F)(F)C(F)(F)F
A. 8.33

Q. Give the reported pIC50 for this compound. C[C@]12C[C@H](c3ccc(C(=O)N4CCN(Cc5cccnc5)CC4)cc3)C3=C4CCC(=O)C=C4CC[C@H]3[C@@H]1CC[C@@]2(O)C(F)(F)C(F)(F)F
A. 8.14

Q. For the compound CC(=O)Nc1ccc(NC(=O)c2ccc([C@H]3C[C@@]4(C)[C@@H](CC[C@@]4(O)C(F)(F)C(F)(F)F)[C@@H]4CCC5=CC(=O)CCC5=C43)cc2)cc1 , give its reported pIC50.
A. 9.15

Q. Assign pIC50 to the following record: CN(C)CCN(C)C(=O)c1ccc([C@H]2C[C@@]3(C)[C@@H](CC[C@@]3(O)C(F)(F)C(F)(F)F)[C@@H]3CCC4=CC(=O)CCC4=C32)cc1
A. 7.64

Q. Supply pIC50 value. Item: C[C@]12C[C@H](c3ccc(C(=O)Nc4cccc(C(=O)O)c4)cc3)C3=C4CCC(=O)C=C4CC[C@H]3[C@@H]1CC[C@@]2(O)C(F)(F)C(F)(F)F
A. 6.85
